CONDITION_CONTEXT: in acetonitrile, 288.15 K
PARAMETER_MEASURED: solubility (mole fraction)
I'd appreciate a reply containing only the number, no unit.

[in] In one line, give reported solubility (mole fraction) of the entry CCc1nc(N)nc(N)c1-c1ccc(Cl)cc1 .
[out] 0.000148

====

CONDITION_CONTEXT: in isopropyl acetate, 318.15 K
PARAMETER_MEASURED: solubility (mole fraction)
I'd appreciate a reply containing only the number, no unit.

[in] In one line, give reported solubility (mole fraction) of the entry CCc1nc(N)nc(N)c1-c1ccc(Cl)cc1 .
[out] 0.00259

====

CONDITION_CONTEXT: in methyl acetate, 278.15 K
PARAMETER_MEASURED: solubility (mole fraction)
I'd appreciate a reply containing only the number, no unit.

[in] In one line, give reported solubility (mole fraction) of the entry CCc1nc(N)nc(N)c1-c1ccc(Cl)cc1 .
[out] 0.000372
